Measurement type: melting point

Please review the following examples before continuing.
NC(=Nc1ccc(CCNCc2ccc3cccc(O)c3n2)cc1)c1cccs1	> 230 °C
I.NC(=Nc1ccc(CCNCC=Cc2ccccc2)cc1)c1cccs1	151 to 153 °C
COc1cc(C=CCNCCc2ccc(N=C(N)c3cccs3)cc2)cc(OC)c1O.Cl.Cl	182 to 184 °C
NC(=Nc1ccc(CCNC(=O)/C=C/c2ccccc2O)cc1)c1cccs1	145 to 155 °C
COc1cc(/C=C/C(=O)NCCc2ccc(N=C(N)c3cccs3)cc2)cc(OC)c1O	196.4 to 197.6 °C

Your task in this section: give melting point for each listed record.
1. CC(=O)Nc1ccc(CNCCc2ccc(N=C(N)c3cccs3)cc2)cc1
2. COc1cc(O)c(CNCCc2ccc(N=C(N)c3cccs3)cc2)c(OC)c1
3. COc1cc(C=CCNCCc2ccc(N=C(N)c3cccs3)cc2)ccc1O.O=C(O)/C=C/C(=O)O.O=C(O)/C=C/C(=O)O

Response given:
1. 237.8 to 239 °C
2. > 230 °C
3. 174 to 176 °C
